B1: library; numbered along this chain (parent)
chain: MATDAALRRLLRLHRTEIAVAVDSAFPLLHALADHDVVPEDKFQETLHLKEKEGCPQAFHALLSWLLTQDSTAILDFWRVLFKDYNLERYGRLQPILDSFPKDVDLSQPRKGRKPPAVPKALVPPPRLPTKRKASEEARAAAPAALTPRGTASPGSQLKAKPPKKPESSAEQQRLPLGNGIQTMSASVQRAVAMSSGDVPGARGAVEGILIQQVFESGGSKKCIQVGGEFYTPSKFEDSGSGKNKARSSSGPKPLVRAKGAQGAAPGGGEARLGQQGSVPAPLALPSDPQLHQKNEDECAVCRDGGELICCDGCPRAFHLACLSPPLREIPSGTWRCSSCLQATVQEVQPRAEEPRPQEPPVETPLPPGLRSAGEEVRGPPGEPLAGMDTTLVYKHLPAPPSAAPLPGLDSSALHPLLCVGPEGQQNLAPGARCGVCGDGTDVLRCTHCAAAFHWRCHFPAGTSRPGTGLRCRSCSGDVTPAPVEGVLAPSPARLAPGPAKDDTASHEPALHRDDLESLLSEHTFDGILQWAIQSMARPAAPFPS

Variants of: B1
protocolDescription: AIRE transcriptional activation functional score (insulin promoter-GFP; nonsense median 0, synonymous median 1) (normalised score); higher = higher AIRE activity (more reporter activation)
experimentalParameters: with insulin promoter-GFP reporter in HEK293
endpointLabel: AIRE transcriptional activation functional score
Please reply with the value in numeric form only.

Query: What measured AIRE transcriptional activation functional score goes with `G227L` ?
Result: 0.445

Query: What measured AIRE transcriptional activation functional score goes with `A144L` ?
Result: 1.17

Query: What measured AIRE transcriptional activation functional score goes with `A258I` ?
Result: 0.643

Query: What measured AIRE transcriptional activation functional score goes with `P367Y` ?
Result: 1.39

Query: What measured AIRE transcriptional activation functional score goes with `S234P` ?
Result: 1.19

Query: What measured AIRE transcriptional activation functional score goes with `P56D` ?
Result: -0.102

Query: What measured AIRE transcriptional activation functional score goes with `I533C` ?
Result: 0.256

Query: What measured AIRE transcriptional activation functional score goes with `A121K` ?
Result: 1.21

Query: What measured AIRE transcriptional activation functional score goes with `P361G` ?
Result: 1.21

Query: What measured AIRE transcriptional activation functional score goes with `A25Y` ?
Result: -0.882

Query: What measured AIRE transcriptional activation functional score goes with `H454E` ?
Result: 0.0475

Query: What measured AIRE transcriptional activation functional score goes with `T463D` ?
Result: 1.54

Query: What measured AIRE transcriptional activation functional score goes with `S372K` ?
Result: 1.48

Query: What measured AIRE transcriptional activation functional score goes with `Q346T` ?
Result: 1.02

Query: What measured AIRE transcriptional activation functional score goes with `R328Y` ?
Result: 1.34

Query: What measured AIRE transcriptional activation functional score goes with `V484Y` ?
Result: 0.975

Query: What measured AIRE transcriptional activation functional score goes with `L308I` ?
Result: 0.905
